target: VAV1 (Homo sapiens, UniProt P15498+Q96SW2); construct: A heterozygous VAV1 C-terminal HiBiT knock-in pool was generated at Monte Rosa Therapeutics from a clonal Jurkat cell; endogenous in cells; host or cells: Jurkat clone stably expressing LgBiT, homozygous GSPT1-G575N; heterozygous VAV1-HiBiT knock-in pool; test: VAV1 degradation activity, VAV1-HiBiT knock-in Jurkat luminescence assay (Example A, Table 1); assay type: cell-based; conditions: Jurkat, VAV1-HiBiT knock-in Jurkat cells, luminescence read at 6 and 24 hours; read-out: VAV1 Dmax %
Sequence (P15498 whole entry): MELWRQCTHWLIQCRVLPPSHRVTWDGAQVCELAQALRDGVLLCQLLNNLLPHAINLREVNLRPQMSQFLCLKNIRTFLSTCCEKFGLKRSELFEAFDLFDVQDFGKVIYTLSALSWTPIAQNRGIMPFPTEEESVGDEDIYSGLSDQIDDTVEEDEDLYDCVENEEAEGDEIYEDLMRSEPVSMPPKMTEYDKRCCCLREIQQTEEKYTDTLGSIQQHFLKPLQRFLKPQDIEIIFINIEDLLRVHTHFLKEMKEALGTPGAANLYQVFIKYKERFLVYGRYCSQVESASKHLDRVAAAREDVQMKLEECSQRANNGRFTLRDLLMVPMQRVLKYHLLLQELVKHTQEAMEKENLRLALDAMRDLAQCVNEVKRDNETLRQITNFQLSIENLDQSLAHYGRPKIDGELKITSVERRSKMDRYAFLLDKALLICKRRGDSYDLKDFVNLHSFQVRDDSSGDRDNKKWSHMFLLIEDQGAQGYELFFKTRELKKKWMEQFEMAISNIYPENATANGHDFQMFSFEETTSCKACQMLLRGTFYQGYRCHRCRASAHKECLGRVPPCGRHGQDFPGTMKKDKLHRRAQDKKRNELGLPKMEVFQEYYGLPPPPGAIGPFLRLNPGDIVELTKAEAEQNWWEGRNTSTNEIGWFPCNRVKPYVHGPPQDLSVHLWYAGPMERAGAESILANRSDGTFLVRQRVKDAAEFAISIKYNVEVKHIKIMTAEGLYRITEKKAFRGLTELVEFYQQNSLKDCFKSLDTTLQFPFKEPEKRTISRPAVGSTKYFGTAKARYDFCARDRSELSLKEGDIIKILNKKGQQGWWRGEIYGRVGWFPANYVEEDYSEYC
Sequence (Q96SW2 whole entry): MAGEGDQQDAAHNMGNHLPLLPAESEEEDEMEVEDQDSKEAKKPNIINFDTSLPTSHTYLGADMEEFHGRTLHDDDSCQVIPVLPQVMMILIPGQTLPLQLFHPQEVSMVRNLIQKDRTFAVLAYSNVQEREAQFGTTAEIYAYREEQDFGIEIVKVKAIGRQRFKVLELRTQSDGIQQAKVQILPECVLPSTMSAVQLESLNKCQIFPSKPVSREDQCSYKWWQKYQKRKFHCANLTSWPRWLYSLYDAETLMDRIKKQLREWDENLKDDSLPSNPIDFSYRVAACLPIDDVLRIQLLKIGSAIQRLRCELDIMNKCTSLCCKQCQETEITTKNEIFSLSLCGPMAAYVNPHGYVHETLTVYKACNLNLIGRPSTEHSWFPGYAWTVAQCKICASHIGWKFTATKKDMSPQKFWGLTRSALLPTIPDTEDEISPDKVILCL
Sequence (Q16531 whole entry partner): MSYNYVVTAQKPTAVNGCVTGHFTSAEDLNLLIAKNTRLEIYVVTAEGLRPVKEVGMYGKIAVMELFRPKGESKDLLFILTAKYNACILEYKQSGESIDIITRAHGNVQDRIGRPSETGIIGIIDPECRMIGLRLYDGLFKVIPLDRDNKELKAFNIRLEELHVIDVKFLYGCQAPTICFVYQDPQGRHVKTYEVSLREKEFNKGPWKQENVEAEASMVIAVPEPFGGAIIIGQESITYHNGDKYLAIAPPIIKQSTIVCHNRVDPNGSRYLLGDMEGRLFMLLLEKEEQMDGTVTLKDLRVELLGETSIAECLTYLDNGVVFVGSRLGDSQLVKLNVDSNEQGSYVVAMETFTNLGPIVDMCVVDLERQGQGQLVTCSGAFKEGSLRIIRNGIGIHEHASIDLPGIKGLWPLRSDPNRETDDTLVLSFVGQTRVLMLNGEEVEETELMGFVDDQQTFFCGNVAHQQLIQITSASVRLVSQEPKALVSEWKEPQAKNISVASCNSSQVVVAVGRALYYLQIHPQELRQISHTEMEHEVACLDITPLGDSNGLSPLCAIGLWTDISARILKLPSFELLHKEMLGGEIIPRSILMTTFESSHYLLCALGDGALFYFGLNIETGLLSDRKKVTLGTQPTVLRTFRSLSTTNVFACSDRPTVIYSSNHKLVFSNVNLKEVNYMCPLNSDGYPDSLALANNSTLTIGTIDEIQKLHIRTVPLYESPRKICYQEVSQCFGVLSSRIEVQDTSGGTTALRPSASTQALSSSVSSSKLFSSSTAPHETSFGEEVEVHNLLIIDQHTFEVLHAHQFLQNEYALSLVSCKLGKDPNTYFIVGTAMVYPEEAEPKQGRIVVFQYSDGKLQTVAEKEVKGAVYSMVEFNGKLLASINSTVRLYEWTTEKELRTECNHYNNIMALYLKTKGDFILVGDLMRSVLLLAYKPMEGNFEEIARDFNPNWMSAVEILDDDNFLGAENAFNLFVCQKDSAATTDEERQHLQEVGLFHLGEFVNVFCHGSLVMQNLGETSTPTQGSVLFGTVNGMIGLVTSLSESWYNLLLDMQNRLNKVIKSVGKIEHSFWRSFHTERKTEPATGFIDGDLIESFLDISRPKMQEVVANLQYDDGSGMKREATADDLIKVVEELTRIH
OBSERVED_PROPERTY: Dmax (%)
Just the number please, in %, no unit attached.

# Dmax (compound: COC1(CN2C(=O)Cc3cc(-c4cccc(C5CCC(=O)NC5=O)c4Cl)ccc32)CC1 (stereo not shown) [Compound 391] ) is 54

# Dmax (compound: O=C1CCC(c2cccc(-c3ccc(N4CCCNC4=O)cc3)c2Cl)C(=O)N1 (stereo not shown) [Compound 372] ) is 94.4

# Dmax (compound: O=C1CCC(c2cccc(-c3ccc(Cn4cccnc4=O)nc3)c2Cl)C(=O)N1 (stereo not shown) [Compound 434] ) is 46.2

# Dmax (compound: Cn1ccc(COc2ccc(-c3cccc(C4CCC(=O)NC4=O)c3Cl)c(Cl)c2)n1 (stereo not shown) [Compound 177] ) is 29.2
